experiment: Binary supramolecular self-assembly systems of polymer and target: guest concentration over incubation time (Comparative Example 2); type: physicochemical; details: binary system with 0.5% polymer 106; incubation 0.5 h
Everything with Concentration of the target in the solution measured after different incubation time lower than 100 µg/mL is No; everything else, including exactly 100 µg/mL, is Yes.

Query :: Given CCCSc1nc(N[C@@H]2C[C@H]2c2ccc(F)c(F)c2)c2nnn([C@@H]3C[C@H](OCCO)[C@@H](O)[C@H]3O)c2n1 , state whether its Concentration of the target in the solution measured after different incubation time is at least 100 µg/mL.
Result :: No

Query :: Given C=C(C)[C@@H]1CCC(C)=C[C@H]1c1c(O)cc(CCCCC)cc1O , state whether its Concentration of the target in the solution measured after different incubation time is at least 100 µg/mL.
Result :: Yes

Query :: Given COc1cc2nccc(Oc3ccc(NC(=O)NC4CC4)c(Cl)c3)c2cc1C(N)=O , state whether its Concentration of the target in the solution measured after different incubation time is at least 100 µg/mL.
Result :: No

Query :: Given CC#CC(=O)N1CCC[C@H]1c1nc(-c2ccc(C(=O)Nc3ccccn3)cc2)c2c(N)nccn12 , state whether its Concentration of the target in the solution measured after different incubation time is at least 100 µg/mL.
Result :: Yes

Query :: Given CCC(C)n1ncn(-c2ccc(N3CCN(c4ccc(OCC5COC(Cn6cncn6)(c6ccc(Cl)cc6Cl)O5)cc4)CC3)cc2)c1=O (centres unmarked) , state whether its Concentration of the target in the solution measured after different incubation time is at least 100 µg/mL.
Result :: No

Query :: Given CCOC(=O)C1=C(C)NC(C)=C(C(=O)OC)C1c1cccc(Cl)c1Cl (centres unmarked) , state whether its Concentration of the target in the solution measured after different incubation time is at least 100 µg/mL.
Result :: No

Query :: Given O=C1C[C@@H](c2ccc(O)cc2)Oc2cc(O)cc(O)c21 , state whether its Concentration of the target in the solution measured after different incubation time is at least 100 µg/mL.
Result :: Yes

Query :: Given C=CC(=O)N1CCC[C@@H](n2nc(-c3ccc(Oc4ccccc4)cc3)c3c(N)ncnc32)C1 , state whether its Concentration of the target in the solution measured after different incubation time is at least 100 µg/mL.
Result :: No

Query :: Given CC1(C)CCC(CN2CCN(c3ccc(C(=O)NS(=O)(=O)c4ccc(NCC5CCOCC5)c([N+](=O)[O-])c4)c(Oc4cnc5[nH]ccc5c4)c3)CC2)=C(c2ccc(Cl)cc2)C1 , state whether its Concentration of the target in the solution measured after different incubation time is at least 100 µg/mL.
Result :: Yes

Query :: Given CCCCC1OC(=O)c2ccccc21 (centres unmarked) [Butylphthalide] , state whether its Concentration of the target in the solution measured after different incubation time is at least 100 µg/mL.
Result :: Yes

Query :: Given CCOc1nc2cccc(C(=O)OC(C)OC(=O)OC3CCCCC3)c2n1Cc1ccc(-c2ccccc2-c2nnn[nH]2)cc1 (centres unmarked) , state whether its Concentration of the target in the solution measured after different incubation time is at least 100 µg/mL.
Result :: Yes

Query :: Given CNC(=O)c1cc(Oc2ccc(NC(=O)Nc3ccc(Cl)c(C(F)(F)F)c3)cc2)ccn1 , state whether its Concentration of the target in the solution measured after different incubation time is at least 100 µg/mL.
Result :: Yes

Query :: Given Cc1cn(-c2cc(NC(=O)c3ccc(C)c(Nc4nccc(-c5cccnc5)n4)c3)cc(C(F)(F)F)c2)cn1 , state whether its Concentration of the target in the solution measured after different incubation time is at least 100 µg/mL.
Result :: Yes

Query :: Given Cc1ccc(-c2cc(C(F)(F)F)nn2-c2ccc(S(N)(=O)=O)cc2)cc1 , state whether its Concentration of the target in the solution measured after different incubation time is at least 100 µg/mL.
Result :: No

Query :: Given CNC(=O)c1ccc(N2C(=S)N(c3ccc(C#N)c(C(F)(F)F)c3)C(=O)C2(C)C)cc1F [Enzalutamide] , state whether its Concentration of the target in the solution measured after different incubation time is at least 100 µg/mL.
Result :: Yes

Query :: Given O=C1[C@@H]2[C@H]3CC[C@H](C3)[C@@H]2C(=O)N1C[C@@H]1CCCC[C@H]1CN1CCN(c2nsc3ccccc23)CC1 , state whether its Concentration of the target in the solution measured after different incubation time is at least 100 µg/mL.
Result :: No

Query :: Given CCCNS(=O)(=O)Nc1ncnc(OCCOc2ncc(Br)cn2)c1-c1ccc(Br)cc1 , state whether its Concentration of the target in the solution measured after different incubation time is at least 100 µg/mL.
Result :: No

Where these numbers come from: patent US20250339399A1
